Source: patent US10174007B2

biological target: KHK-C (Homo sapiens (Human), UniProt P50053); experiment: Assay A: coupled-enzyme KHK absorbance assay, 10 nM KHK-C
Sequence (P50053 whole entry): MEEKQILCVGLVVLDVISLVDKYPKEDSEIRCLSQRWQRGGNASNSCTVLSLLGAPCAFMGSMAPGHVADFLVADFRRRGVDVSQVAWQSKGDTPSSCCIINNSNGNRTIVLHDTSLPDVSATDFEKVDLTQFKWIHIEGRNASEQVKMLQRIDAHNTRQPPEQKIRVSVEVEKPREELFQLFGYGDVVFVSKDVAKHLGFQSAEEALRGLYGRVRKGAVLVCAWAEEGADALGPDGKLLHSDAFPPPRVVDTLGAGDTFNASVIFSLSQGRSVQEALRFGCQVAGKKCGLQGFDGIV
Measure: IC50 (µM)
Numeric only. Scale: µM

Request: Give the reported value of IC50 for this record: `C[C@@H]1N(c2nc(N3C[C@@H]4[C@H](C3)[C@H]4CS(C)(=O)=O)cc(C(F)(F)F)n2)C[C@@]1(C)O`
Result: 14.4

Request: Give the reported value of IC50 for this record: `COC(=O)C[C@@H]1[C@H]2CN(c3cc(C(F)(F)F)nc(N4CC[C@@H]4C)n3)C[C@@H]12`
Result: 3.51

---

target: KHK-C (Homo sapiens (Human)); assay: Assay A: coupled-enzyme KHK absorbance assay, 10 nM KHK-C; details: read-out: IC50 (nM) Assay A (Table 4); 10 nM KHK-C, 0.8 mM fructose, 0.2 mM ATP; avg of (#) runs
Measure: log10(IC50) (log10 of the value in nM)
Scale: decimal log of IC50, IC50 in nM.

Request: Give the reported value of log10(IC50) for this record: `C[C@H]1[C@H](O)CN1c1nc(N2C[C@@H]3[C@@H](CC(=O)O)[C@@H]3C2)c(F)c(C(C)(F)F)c1C#N`
Result: 0.64

Request: Give the reported value of log10(IC50) for this record: `N#Cc1c(C(F)(F)F)cc(N2C[C@@H]3[C@@H](CC(=O)O)[C@@H]3C2)nc1C1CCC1`
Result: 1.48

Request: Give the reported value of log10(IC50) for this record: `CCc1c(C(F)F)nc(N2C[C@@H](O)[C@@H]2C)nc1N1C[C@@H]2[C@@H](CC(=O)O)[C@@H]2C1`
Result: 2.05

Request: Give the reported value of log10(IC50) for this record: `C[C@H]1CCN1c1nc(C(F)F)c(Cl)c(N2C[C@@H]3[C@@H](CC(=O)O)[C@@H]3C2)n1`
Result: 1.05

Request: Give the reported value of log10(IC50) for this record: `C[C@H]1[C@H](O)CN1c1nc(C(F)F)c(C2CC2)c(N2C[C@@H]3[C@@H](CC(=O)O)[C@@H]3C2)n1`
Result: 2.38

Request: Give the reported value of log10(IC50) for this record: `C[C@@H]1N(c2nc(N3C[C@@H]4[C@@H](CC(=O)O)[C@@H]4C3)cc(C(F)F)c2C#N)C[C@@]1(C)O`
Result: 1.14

---

molecular target: KHK-C (Homo sapiens (Human)); assay: Assay A: coupled-enzyme KHK absorbance assay, 10 nM KHK-C; settings: read-out: IC50 (nM) Assay A (Table 4); 10 nM KHK-C, 0.8 mM fructose, 0.2 mM ATP; avg of (#) runs
Measure: IC50 (nM)
Numeric only. Scale: nM

Request: Send back KHK-C (Homo sapiens (Human)) IC50 of `C[C@H]1C[C@H](O)CN1c1nc(N2C[C@@H]3[C@@H](CC(=O)O)[C@@H]3C2)c(Cl)c(C(F)(F)F)n1` only.
Result: 188

Request: Send back KHK-C (Homo sapiens (Human)) IC50 of `C[C@H]1[C@H](O)CN1c1nc(N2C[C@@H]3[C@@H](CC(=O)O)[C@@H]3C2)c(Cl)c(C(F)(F)F)n1` only.
Result: 6.4

Request: Send back KHK-C (Homo sapiens (Human)) IC50 of `Cc1c(C(F)F)nc(N2C[C@@H](O)[C@@H]2C)nc1N1C[C@@H]2[C@@H](CC(=O)O)[C@@H]2C1` only.
Result: 33.4

Request: Send back KHK-C (Homo sapiens (Human)) IC50 of `Cc1c(N2C[C@@H]3[C@@H](CC(=O)O)[C@@H]3C2)nc(N2CC[C@@H]2C)nc1C(C)(F)F` only.
Result: 51.4

Request: Send back KHK-C (Homo sapiens (Human)) IC50 of `Cc1c(N2C[C@@H]3[C@@H](CC(=O)O)[C@@H]3C2)nc(N2C[C@@](C)(O)[C@@H]2C)nc1C(F)(F)F` only.
Result: 63.6

Request: Send back KHK-C (Homo sapiens (Human)) IC50 of `C[C@H]1[C@H](O)CN1c1cc(N2C[C@@H]3[C@@H](CC(=O)O)[C@@H]3C2)nc(C(F)(F)F)n1` only.
Result: 1760

Request: Send back KHK-C (Homo sapiens (Human)) IC50 of `C[C@@H]1N(c2nc(C(F)F)c(Cl)c(N3C[C@@H]4[C@@H](CC(=O)O)[C@@H]4C3)n2)C[C@@]1(C)O` only.
Result: 103

Request: Send back KHK-C (Homo sapiens (Human)) IC50 of `Cc1c(C(F)F)nc(N2C[C@@](C)(O)[C@@H]2C)nc1N1C[C@@H]2[C@@H](CC(=O)O)[C@@H]2C1` only.
Result: 259

Request: Send back KHK-C (Homo sapiens (Human)) IC50 of `C[C@H]1[C@H](O)CN1c1nc(N2C[C@@H]3[C@@H](CCC(=O)O)[C@@H]3C2)cc(C(F)(F)F)c1C#N` only.
Result: 82.5

Request: Send back KHK-C (Homo sapiens (Human)) IC50 of `C[C@@H]1N(c2nc(N3C[C@@H]4[C@@H](CC(=O)O)[C@@H]4C3)c(Cl)c(C(F)F)c2C#N)C[C@@]1(C)O` only.
Result: 8.7

Request: Send back KHK-C (Homo sapiens (Human)) IC50 of `C[C@H]1[C@H](O)CN1c1cc(N2C[C@@H]3[C@@H](CC(=O)O)[C@@H]3C2)cc(C(F)(F)F)n1` only.
Result: 109

Request: Send back KHK-C (Homo sapiens (Human)) IC50 of `C[C@H]1CCCN1c1nc(N2C[C@@H]3[C@@H](CC(=O)O)[C@@H]3C2)cc(C(F)(F)F)n1` only.
Result: 120

Request: Send back KHK-C (Homo sapiens (Human)) IC50 of `Cc1c(C(F)F)nc(N2CC[C@@H]2C)nc1N1C[C@@H]2[C@@H](CC(=O)O)[C@@H]2C1` only.
Result: 17.8

Request: Send back KHK-C (Homo sapiens (Human)) IC50 of `N#Cc1c(C(F)F)cc(N2C[C@@H]3[C@@H](CC(=O)O)[C@@H]3C2)nc1N1CCCC1` only.
Result: 58.3

Request: Send back KHK-C (Homo sapiens (Human)) IC50 of `COc1c(C(F)F)nc(N2C[C@@H](O)[C@@H]2C)nc1N1C[C@@H]2[C@@H](CC(=O)O)[C@@H]2C1` only.
Result: 265

Request: Send back KHK-C (Homo sapiens (Human)) IC50 of `C[C@H]1[C@H](O)CN1c1nc(N2C[C@@H]3[C@@H](CC(=O)O)[C@@H]3C2)cc(C(C)(F)F)n1` only.
Result: 131

Request: Send back KHK-C (Homo sapiens (Human)) IC50 of `Cc1c(N2C[C@@H]3[C@@H](CC(=O)O)[C@@H]3C2)nc(N2C[C@@H](O)[C@@H]2C)nc1C(C)(F)F` only.
Result: 114

Request: Send back KHK-C (Homo sapiens (Human)) IC50 of `C[C@@H]1N(c2nc(N3C[C@@H]4[C@@H](CC(=O)O)[C@@H]4C3)cc(C(F)(F)F)n2)C[C@@]1(C)O` only.
Result: 703

Request: Send back KHK-C (Homo sapiens (Human)) IC50 of CC1CCCCN1c1nc(N2C[C@@H]3[C@@H](CC(=O)O)[C@@H]3C2)cc(C(F)(F)F)n1 (some centres unmarked) only.
Result: 24.8

Request: Send back KHK-C (Homo sapiens (Human)) IC50 of `C[C@H]1[C@H](O)CN1c1nc(N2C[C@@H]3[C@@H](CC(=O)O)[C@@H]3C2)nc(C(F)(F)F)n1` only.
Result: 509

Request: Send back KHK-C (Homo sapiens (Human)) IC50 of `N#Cc1c(C(F)(F)F)cc(N2C[C@@H]3[C@@H](CC(=O)O)[C@@H]3C2)nc1N1CCC1` only.
Result: 21.5

Request: Send back KHK-C (Homo sapiens (Human)) IC50 of `N#Cc1c(C(F)F)cc(N2C[C@@H]3[C@@H](CC(=O)O)[C@@H]3C2)nc1NC1CCC1` only.
Result: 150

Request: Send back KHK-C (Homo sapiens (Human)) IC50 of `C[C@H]1CCN1c1nc(N2C[C@@H]3[C@@H](CC(=O)O)[C@@H]3C2)cc(C(F)F)c1C#N` only.
Result: 7.2
